- Target Under Test: alpha-synuclein fibrils, P37840
- Test Details: SPR, captured mAb
- Cond: remark: other sources report otherwise
Reported Kd values are given for each entry in this list.

- Binder: "ACI-7067-1108B11-Ab2 (antibody, V domains shown) VH: EVQLVESGGGLVQPKGSLKLSCAASGFTFNTYAMHWVRQAPGKGLEWVARIRSKGSNYATNYADSVKDRFTISRDDSQSMLYLQMNNLKTEDTAMYYCVRGHGSSYFSYWGQGTLVTVSA VL: QIVLTQSPAIMSASPGERITMTCSANSSVTYMHWYQQKSGTSPKRWIYDTSNLASGVPARFSGSGSGTSYSLTISSMEAEDAATYYCQQWKSHPPTFGAGTKLELK"
  Kd (nM): 18.6
- Binder: "ACI-7079-2506F3-Ab1 (antibody, V domains shown) VH: QVQLQQPGAELVKPGASVKLSCKASGYTFTTYWMQWVKQRPGQGLEWIGEIDPSDSYINYNQKFKGKATLTVDTSSSTAFMQLSSLTSEDSAVYYCARGMMDYWGQGTSVTVSS VL: DVLMTQTPLSLPVSLGDQASISCRSSQSIVHSNGNTYLEWYLQKPGQSPKLLIYKVSNRFSGVPDRFSGSGSGTDFTLKISRVEAEDLGVYYCFKGSHVPYTFGGGTKLEIK"
  Kd (nM): 8.8
- Binder: "ACI-7079-2507B3-Ab1 (antibody, V domains shown) VH: EVQLVESGGGLVQPKGSLKVSCAASGFTFKTYAMHWVRQAPGKGLEWVARIRSENSNFAKYYADSVKDRFTISRDDSQSMLYLQMHTLKTEDTAIYYCVRGYNGSSLDYWGQGTTLTVSS VL: QIVLTQSPAIMSAFPGERVTMTCSASSSVNYMHWYQQKSGTSPKRWIYDTSKLASGVPARFSGGGSGTSYSLTISNMEAEDAATYYCQQWRSNPPTFGGGTKLEIK"
  Kd (nM): 34.9
- Binder: "ACI-7067-1107G5-Ab2 (antibody, V domains shown) VH: QVQLQQPGTELVKPGASVKLSCKASGYTFTKYWMHWVKQRPGQGLEWIGNINPNNGDTNYNEKFKSKATLTVDKSSSTAYMQLSSLTSEDSAVYYCAIAMDYWGQGTSVTVSS VL: DIQMTQSPSSLSAFLGERVSLTCRASQDIGNNLNWFQQEPDGTIKRLIYATSSLDSGVPKRFSGSRSGSEYSLTISSLESEDFVDYYCLQFGSSPLTFGAGTKLELK"
  Kd (nM): 16.1

The measurements presented in this section are drawn from patent US20250340623A1.
